// reported log10(IC50) for each item listed
biological target: recombinant human MAO-B (monoamine oxidase-B) (Homo sapiens, UniProt P27338); construct: purchased Sigma-Aldrich; assay: Activity on recombinant human MAO-B, method similar to VAP-1 assay, 1 mM benzylamine substrate; assay type: biochemical; settings: read-out: Inhibitory Activity (IC50, nM) MAO-B
Sequence (P27338 whole entry): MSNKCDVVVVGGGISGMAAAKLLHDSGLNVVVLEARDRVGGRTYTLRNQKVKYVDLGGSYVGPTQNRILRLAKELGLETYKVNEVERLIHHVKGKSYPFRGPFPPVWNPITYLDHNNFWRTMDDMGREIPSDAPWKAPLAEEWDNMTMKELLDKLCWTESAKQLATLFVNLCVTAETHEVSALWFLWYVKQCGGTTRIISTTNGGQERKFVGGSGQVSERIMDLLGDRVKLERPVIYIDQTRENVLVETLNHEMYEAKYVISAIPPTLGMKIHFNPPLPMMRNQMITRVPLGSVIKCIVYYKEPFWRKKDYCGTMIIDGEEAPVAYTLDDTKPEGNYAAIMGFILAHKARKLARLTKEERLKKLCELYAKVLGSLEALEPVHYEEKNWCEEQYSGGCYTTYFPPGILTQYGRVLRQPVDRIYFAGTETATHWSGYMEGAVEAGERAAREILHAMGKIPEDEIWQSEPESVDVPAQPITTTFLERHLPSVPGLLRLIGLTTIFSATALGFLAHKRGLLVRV
Structures can show the parent of a compound that is named as a salt.
Values below are the log10 of the recorded IC50, with nM as the unit.

// solved cases for log10(IC50) follow
NC/C(=C\F)Cn1nc2cc(-c3ccc(C(F)(F)F)nc3)ccn2c1=O [Example 30, hydrochloride]    0.92
NC/C(=C\F)Cn1nc2cc(-c3ccc4c(c3)NC(=O)OC4)ccn2c1=O [Example 41, hydrochloride]    2.86
NC/C(=C\F)Cn1nc2ccc(-c3ccc4nonc4c3)cn2c1=O [Example 16, trifluoroacetate]    1.72
NCC(Cn1nc2cc(C#Cc3cnc4c(c3)OCCN4)ccn2c1=O)=C(F)F [Example 61, ditrifluoroacetate]    4.57
Cc1cc(-c2ccc3nn(C/C(=C/F)CN)c(=O)n3c2)cc2c1NC(=O)CC2 [Example 17, hydrochloride]    2.46
NC/C(=C\F)Cn1nc2cc(-c3ccc(-c4ccon4)cc3)ccn2c1=O [Example 25, hydrochloride]    2.34

Lookup result for NC/C(=C\F)Cn1nc2cc(-c3ccc(-c4cnon4)cc3)ccn2c1=O [Example 27, hydrochloride] ; measured log10(IC50): 1.83

Field log10(IC50) (entry CC(=O)Nc1nc2cc(-c3ccc4nn(C/C(=C/F)CN)c(=O)n4c3)ccc2s1 [Example 15, trifluoroacetate] ) reads 2.78

The compound listed as NC/C(=C\F)Cn1nc2cc(-c3c[nH]c4ncccc34)ccn2c1=O [Example 35, hydrochloride] has a reported log10(IC50) of 1.38

Item: Cn1cc(C#Cc2ccn3c(=O)n(CC(CN)=C(F)F)nc3c2)cn1 [Example 56, trifluoroacetate] | log10(IC50): 3.40

Entry under test: CS(=O)(=O)c1ccc(-c2ccn3c(=O)n(CC(CN)=C(F)F)nc3c2)cc1 [Example 48, trifluoroacetate] . Its log10(IC50) was 2.90

Reported log10(IC50) ( NC/C(=C\F)Cn1nc2ccc(-c3ccc4c(c3)OCCO4)cn2c1=O [Example 13, trifluoroacetate] ) = 1.18

According to the records, this compound CN(C)c1ccc(-c2ccn3c(=O)n(C/C(=C/F)CN)nc3c2)cn1 [Example 32, hydrochloride] displays log10(IC50) of 1.28

====

Target: recombinant human MAO-A (monoamine oxidase-A) (Homo sapiens, UniProt P21397)
Construct: purchased Sigma-Aldrich
Sequence (P21397 1-527): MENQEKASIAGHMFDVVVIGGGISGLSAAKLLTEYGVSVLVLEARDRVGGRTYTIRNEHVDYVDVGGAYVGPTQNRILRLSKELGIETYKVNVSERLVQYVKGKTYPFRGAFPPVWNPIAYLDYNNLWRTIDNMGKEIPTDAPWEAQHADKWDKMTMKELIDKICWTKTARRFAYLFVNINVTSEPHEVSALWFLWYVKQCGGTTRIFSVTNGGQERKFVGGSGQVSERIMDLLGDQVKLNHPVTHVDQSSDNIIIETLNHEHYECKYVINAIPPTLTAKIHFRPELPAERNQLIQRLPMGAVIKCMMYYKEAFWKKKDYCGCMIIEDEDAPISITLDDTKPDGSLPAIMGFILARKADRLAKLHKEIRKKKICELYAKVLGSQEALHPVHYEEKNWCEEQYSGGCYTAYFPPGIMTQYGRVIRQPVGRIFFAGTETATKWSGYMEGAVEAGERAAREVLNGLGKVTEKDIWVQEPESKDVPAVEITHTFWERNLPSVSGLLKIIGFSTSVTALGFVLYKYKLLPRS
Assay: Activity on recombinant human MAO-A, method similar to VAP-1 assay, 0.5 mM tyramine substrate
Format: biochemical
Conditions: read-out: Inhibitory Activity (IC50, nM) MAO-A
Structures can show the parent of a compound that is named as a salt.
MEASURED PARAMETER: IC50

NCC(Cn1nc2cc(Br)ccn2c1=O)=C(F)F [Example 47, trifluoroacetate]    > 100000 nM
Cn1cc(C#Cc2ccn3c(=O)n(CC(CN)=C(F)F)nc3c2)cn1 [Example 56, trifluoroacetate]    > 100000 nM
CN(C)Cc1ccccc1-c1ccn2c(=O)n(C/C(=C/F)CN)nc2c1 [Example 23, hydrochloride]    > 10000 nM

Now for the compound whose IC50 we want.
What the record says about NC/C(=C\F)Cn1nc2ccc(-c3cccc(-c4nc[nH]n4)c3)cn2c1=O [Example 6] : IC50 is > 100000 nM

====

Consider the following compounds and their measured IC50 readings.
biological target: recombinant human VAP-1 (Homo sapiens, UniProt Q16853); construct: purchased R&D systems; test: Activity on recombinant human VAP-1, HRP-coupled Amplex Red hydrogen peroxide assay, benzylamine substrate; format: biochemical; conditions: 30 min incubation at 37° C., 1 mM benzylamine, read-out: Inhibitory Activity (IC50, nM) human VAP-1
Sequence (Q16853 whole entry): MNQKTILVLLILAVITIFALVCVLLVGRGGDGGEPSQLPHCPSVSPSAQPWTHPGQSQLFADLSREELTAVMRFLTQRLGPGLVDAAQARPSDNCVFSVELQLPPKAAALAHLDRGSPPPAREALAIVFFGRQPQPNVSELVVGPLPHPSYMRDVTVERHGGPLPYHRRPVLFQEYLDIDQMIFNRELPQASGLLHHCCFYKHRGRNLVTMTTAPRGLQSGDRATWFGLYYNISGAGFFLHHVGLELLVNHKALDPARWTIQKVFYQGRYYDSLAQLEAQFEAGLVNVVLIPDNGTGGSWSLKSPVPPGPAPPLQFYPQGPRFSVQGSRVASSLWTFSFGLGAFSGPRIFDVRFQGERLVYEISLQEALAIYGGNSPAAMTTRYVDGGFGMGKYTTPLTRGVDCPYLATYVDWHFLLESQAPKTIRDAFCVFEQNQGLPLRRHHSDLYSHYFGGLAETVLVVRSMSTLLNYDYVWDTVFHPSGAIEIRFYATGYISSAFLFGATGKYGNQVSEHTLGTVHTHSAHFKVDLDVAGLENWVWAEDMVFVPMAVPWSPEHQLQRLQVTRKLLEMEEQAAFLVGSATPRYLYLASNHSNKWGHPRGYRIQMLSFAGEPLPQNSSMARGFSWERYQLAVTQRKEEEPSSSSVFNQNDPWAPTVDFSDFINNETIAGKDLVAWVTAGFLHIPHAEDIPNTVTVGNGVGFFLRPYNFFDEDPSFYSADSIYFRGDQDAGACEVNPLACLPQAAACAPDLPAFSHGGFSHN
Where a name gives a salt, the structure may show the parent alone.
# value in nM; strip the unit string

As a guide, the following entries are already answered.
NCC(Cn1nc2cc(-c3ccc(C(F)(F)F)nc3)ccn2c1=O)=C(F)F [Example 50, trifluoroacetate]    0.2
NCC(Cn1nc2cc(C#Cc3ccc(N4CCOCC4)nc3)ccn2c1=O)=C(F)F [Example 58, trifluoroacetate]    0.3
NC/C(=C\F)Cn1nc2cc(-c3ccc4c(c3)OCO4)ccn2c1=O [Example 36, hydrochloride]    0.3
Cc1cc(-c2ccn3c(=O)n(CC(CN)=C(F)F)nc3c2)cc2c1NC(=O)CC2 [Example 53, trifluoroacetate]    0.2
NC/C(=C\F)Cn1nc2ccc(-c3ccc4c(c3)OCO4)cn2c1=O [Example 12, hydrochloride]    3.4

For NCC(Cn1nc2cc(Br)ccn2c1=O)=C(F)F [Example 47, trifluoroacetate] the compound record lists IC50 as 7

Value of measured IC50 for the entry NC/C(=C\F)Cn1nc2cc(-c3ccc4c(c3)NC(=O)CO4)ccn2c1=O [Example 42, hydrochloride] : 0.3

====

target: recombinant human VAP-1 (Homo sapiens, UniProt Q16853); construct: purchased R&D systems; assay: Activity on recombinant human VAP-1, HRP-coupled Amplex Red hydrogen peroxide assay, benzylamine substrate; assay type: biochemical; conditions: 30 min incubation at 37° C., 1 mM benzylamine, read-out: Inhibitory Activity (IC50, nM) human VAP-1
Where a name gives a salt, the structure may show the parent alone.
MEASURED PARAMETER: log10 of IC50 (log10 of the value in nM)
// units: nM (pre-log); metric: IC50; scale: log10

Recorded log10 of IC50, per entry:
CN1CCOc2cc(-c3ccn4c(=O)n(C/C(=C/F)CN)nc4c3)ccc21 [Example 44, hydrochloride]    0.00
NC/C(=C\F)Cn1nc2ccc(-c3ccc(C(F)(F)F)nc3)cn2c1=O [Example 9, hydrochloride]    1.08
NC/C(=C\F)Cn1nc2cc(-c3cccc(-c4cc[nH]n4)c3)ccn2c1=O [Example 26, hydrochloride]    -0.70

Field log10 of IC50 (recombinant human VAP-1 (Homo sapiens, UniProt Q16853)), entry CC(=O)Nc1nc2cc(-c3ccc4nn(C/C(=C/F)CN)c(=O)n4c3)ccc2s1 [Example 15, trifluoroacetate] : 0.97

log10 of IC50 for recombinant human VAP-1 (Homo sapiens, UniProt Q16853) with input CC(=O)Nc1cc(-c2ccc3nn(C/C(=C/F)CN)c(=O)n3c2)ccn1 [Example 8, trifluoroacetate] equals 1.15

Tested on recombinant human VAP-1 (Homo sapiens, UniProt Q16853), the item NC/C(=C\F)Cn1nc2ccc(-c3ccc4sc(N)nc4c3)cn2c1=O [Example 14, trifluoroacetate] showed log10 of IC50 equal to 0.79

====

This section presents compounds with their documented IC50 values.
biological target: recombinant human DAO (diamine oxidase) (Homo sapiens); construct: purchased R&D systems; assay: Activity on recombinant human DAO, method similar to VAP-1 assay, 1 mM putrescine substrate; format: biochemical; conditions: read-out: Inhibitory Activity (IC50, nM) DAO
Sequence (P19801 20-751): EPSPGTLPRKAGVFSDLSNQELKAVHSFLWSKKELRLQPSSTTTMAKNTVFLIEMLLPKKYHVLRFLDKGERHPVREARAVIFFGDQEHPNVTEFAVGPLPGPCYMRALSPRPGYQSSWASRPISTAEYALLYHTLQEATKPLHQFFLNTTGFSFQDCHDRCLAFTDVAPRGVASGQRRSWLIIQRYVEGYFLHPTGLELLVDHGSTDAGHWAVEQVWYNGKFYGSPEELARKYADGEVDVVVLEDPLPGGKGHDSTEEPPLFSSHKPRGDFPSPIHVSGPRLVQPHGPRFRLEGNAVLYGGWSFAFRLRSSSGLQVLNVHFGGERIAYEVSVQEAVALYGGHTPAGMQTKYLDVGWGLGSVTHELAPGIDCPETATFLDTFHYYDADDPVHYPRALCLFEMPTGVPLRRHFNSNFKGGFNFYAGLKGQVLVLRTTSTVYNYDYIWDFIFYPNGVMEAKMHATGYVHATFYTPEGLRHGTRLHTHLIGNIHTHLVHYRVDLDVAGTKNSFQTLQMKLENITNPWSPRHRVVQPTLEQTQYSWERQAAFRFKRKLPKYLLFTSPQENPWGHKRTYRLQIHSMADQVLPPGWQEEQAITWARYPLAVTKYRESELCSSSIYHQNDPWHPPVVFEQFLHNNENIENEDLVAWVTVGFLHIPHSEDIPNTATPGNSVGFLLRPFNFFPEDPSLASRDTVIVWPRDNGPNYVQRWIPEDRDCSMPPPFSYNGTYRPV
Structures can show the parent of a compound that is named as a salt.
Field format: number, assumed nM, no unit text.

Field: example entries. Status: answers known.
Cc1cc(-c2ccc3nn(C/C(=C/F)CN)c(=O)n3c2)cc2c1NC(=O)CC2 [Example 17, hydrochloride]    0.3
NC/C(=C\F)Cn1nc2cc(-c3ccc(-c4cnon4)cc3)ccn2c1=O [Example 27, hydrochloride]    1.8
NCC(Cn1nc2cc(Br)ccn2c1=O)=C(F)F [Example 47, trifluoroacetate]    42000
Cn1cc(C#Cc2ccn3c(=O)n(CC(CN)=C(F)F)nc3c2)cn1 [Example 56, trifluoroacetate]    6300
NC/C(=C\F)Cn1nc2cc(-c3ccc4c(c3)OCO4)ccn2c1=O [Example 36, hydrochloride]    20

// field: IC50; key: NCC(Cn1nc2cc(-c3ccc(N4CCNCC4)cc3)ccn2c1=O)=C(F)F [Example 49, ditrifluoroacetate] ; value = 390

For CN(C)c1ccc(-c2ccn3c(=O)n(C/C(=C/F)CN)nc3c2)cn1 [Example 32, hydrochloride] the compound record lists IC50 as 24
